Target: T1, human NMI (N-myc Interacting protein) (human, UniProt Q13287 1-307, limits assumed)
T1 construct: Immunogen and ELISA coating antigen; also called hNMI; antigen 1
T1 sequence (looked up): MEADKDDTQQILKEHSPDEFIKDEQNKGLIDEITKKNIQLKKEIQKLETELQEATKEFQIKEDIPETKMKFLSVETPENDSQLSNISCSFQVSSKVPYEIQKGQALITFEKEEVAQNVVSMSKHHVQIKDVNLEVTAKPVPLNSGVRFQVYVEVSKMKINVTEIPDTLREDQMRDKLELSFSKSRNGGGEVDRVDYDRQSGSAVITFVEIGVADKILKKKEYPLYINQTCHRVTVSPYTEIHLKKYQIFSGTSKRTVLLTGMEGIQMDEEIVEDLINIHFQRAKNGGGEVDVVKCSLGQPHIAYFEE
Experiment: I-ELISA, hNMI coated 1 ug/mL; antibody 78.125 ng/mL
REPORTED_PROPERTY: OD450

Lookup: Value lookup for OD450; key = 94C4 (antibody, V domains shown, Rabbit monoclonal antibody; also called 94C4-1; 94C4-1-biotin (biotin-labelled form)) VH: QSLEESGGGLVQPEGSLTLTCKASGFDFSSNAMCWVRQAPGKGLEWIACISSASSGSSGSTYYASWAKGRFTISKTSSTTVTLQMTSLTAADMATYFCARDGYDLWGPGTLVTVSS VL: QVLTQTPSSVSAAVGGTVTISCQSSPSVYNNYLSWFQQKPGQSPKLLIYRVSTLASGVPSRFSGSGSGTQFTLTISGVQCDDAATYYCAGGYDSASDTYVFGGGTEVVVK
Found: 1.64 OD450
